# Tested on: Saccharomyces cerevisiae
# Assay explanation: protein stability index of tFT-peptide fusion (C-terminal peptide) (PSI (0-1 scale)); higher = more stable (slower turnover)
# Run conditions: genetic background: wild type; temperature: 30 C
Value kind: protein stability index
Give a plain numeric answer without units written out.

Below: 2 sequences and their reported protein stability index.
# Residue codes, Assayed target, Value kind, Reported value
measured = [
    ("LWGSGVYGKNEC", "Saccharomyces cerevisiae", "protein stability index", 0.703),
    ("KKTEGATEERKR", "Saccharomyces cerevisiae", "protein stability index", 0.692),
]

Proceed to the following item.
Consider the sequence PRPPANILPSAP and give its measured protein stability index.
0.713

----------
# Test system: Saccharomyces cerevisiae
# Assay explanation: protein stability index of tFT-peptide fusion (C-terminal peptide) (PSI (0-1 scale)); higher = more stable (slower turnover)
# Run conditions: genetic background: cdc53-1; temperature: 37 C
Value kind: protein stability index

# Residue codes, Assayed target, protein stability index
rows = [
    ("IIFWMWVIIRVY", "Saccharomyces cerevisiae", 0.0686),
    ("QDQWINTSLELS", "Saccharomyces cerevisiae", 0.759),
    ("PPSPPPPPPSPF", "Saccharomyces cerevisiae", 0.737),
]

Consider the sequence PCNVLWYSLFLF and give its measured protein stability index.
0.597

----------
# System: Saccharomyces cerevisiae
# Assay explanation: protein stability index of tFT-peptide fusion (C-terminal peptide) (PSI (0-1 scale)); higher = more stable (slower turnover)
# Run conditions: genetic background: wild type; temperature: 30 C
// reported protein stability index per item
Give a plain numeric answer without units written out.

# Residue codes, Reported value
records = [
    ("IKVRGEQAEEAE", 0.684),
]

Proceed to the following item.
Consider the sequence KKTIEQNNLTIV and give its measured protein stability index.
0.709

----------
# Tested on: Saccharomyces cerevisiae
# Assay explanation: protein stability index of tFT-peptide fusion (C-terminal peptide) (PSI (0-1 scale)); higher = more stable (slower turnover)
# Run conditions: genetic background: das1 deletion; temperature: 37 C
// reported protein stability index per item
Give a plain numeric answer without units written out.

# Residue codes, protein stability index
measured = [
    ("GKHILLISLNIT", 0.5),
]

Consider the sequence VCAFCLFFVPLP and give its measured protein stability index.
0.65

Consider the sequence LPSLRPPPCIRA and give its measured protein stability index.
0.54

Consider the sequence PPLLLFLSLAFL and give its measured protein stability index.
0.449

Consider the sequence GYTVYARRLIMC and give its measured protein stability index.
0.382

Consider the sequence PRHERPPRDNGH and give its measured protein stability index.
0.73

----------
// reported protein stability index per item
# System: Saccharomyces cerevisiae
# Assay explanation: protein stability index of tFT-peptide fusion (C-terminal peptide) (PSI (0-1 scale)); higher = more stable (slower turnover)
# Run conditions: genetic background: wild type; temperature: 37 C
Give a plain numeric answer without units written out.

Below: 10 sequences and their reported protein stability index.
# Residue codes, protein stability index
records = [
    ("CGCLPYIGTKLC", 0.106),
    ("IIAVFRCCLRVY", 0.152),
    ("GCLVVVGFFSVF", 0.409),
    ("DALHPCIIYLTC", 0.466),
    ("LLLPVFLVFSVS", 0.47),
    ("IREYSIRIKRLQ", 0.318),
    ("KRKKHKRKLVIC", 0.148),
    ("PLYFSVFSLLFL", 0.539),
    ("QRAVGLANFTIK", 0.709),
    ("GAVRRWGWVSFV", 0.393),
]

Consider the sequence LLGGFAAFWRIL and give its measured protein stability index.
0.297

Consider the sequence LLFVLWLSFFVL and give its measured protein stability index.
0.382

----------
# Tested on: Saccharomyces cerevisiae
# Assay explanation: protein stability index of tFT-peptide fusion (C-terminal peptide) (PSI (0-1 scale)); higher = more stable (slower turnover)
# Run conditions: genetic background: wild type; temperature: 30 C
Value kind: protein stability index
Give a plain numeric answer without units written out.

# Residue codes, protein stability index
rows = [
    ("QRRTSLDYGGYF [TAF3 C-terminal 12 aa]", 0.725),
    ("ELLQSFSLVLTL [YKL153W C-terminal 12 aa]", 0.632),
    ("KSLETFRTTNTL [FBA1 C-terminal 12 aa]", 0.727),
]

Consider the sequence SNSSSSQKAAKE [HST2 C-terminal 12 aa] and give its measured protein stability index.
0.651

Consider the sequence GIVYDFHKSDMY [LSM1 C-terminal 12 aa] and give its measured protein stability index.
0.696

----------
# Tested on: Saccharomyces cerevisiae
# Assay explanation: protein stability index of tFT-peptide fusion (C-terminal peptide) (PSI (0-1 scale)); higher = more stable (slower turnover)
# Run conditions: genetic background: wild type; temperature: 30 C
Value kind: protein stability index
Give a plain numeric answer without units written out.

# Residue codes, protein stability index
data = [
    ("QGLPLCVVQALQ", 0.605),
    ("GCAFVVLLSRGF", 0.604),
    ("EPPLPEPPLSRS", 0.705),
    ("HSGLTGLRRLVA", 0.594),
]

Give Saccharomyces cerevisiae protein stability index for KKEEEGNREEKL
0.689

Give Saccharomyces cerevisiae protein stability index for PPRVVPDISTSL
0.699

Give Saccharomyces cerevisiae protein stability index for PLSPPPPTLPLP
0.714

----------
# Tested on: Saccharomyces cerevisiae
# Assay explanation: protein stability index of tFT-peptide fusion (C-terminal peptide) (PSI (0-1 scale)); higher = more stable (slower turnover)
# Run conditions: genetic background: cdc34-1; temperature: 37 C
// reported protein stability index per item
Give a plain numeric answer without units written out.

# Residue codes, Value kind, Reported value
data = [
    ("FVVVCWFWGGGF", "protein stability index", 0.321),
    ("FSALAPTPLLPL", "protein stability index", 0.703),
    ("RKKKRNKKKMIM", "protein stability index", 0.716),
]

Consider the sequence LPAICFWCVLVG and give its measured protein stability index.
0.0778

Consider the sequence GLCFRVCIWVFV and give its measured protein stability index.
0.176

Consider the sequence VCFWCLYVMFSL and give its measured protein stability index.
0.46

Consider the sequence LISRGNRALFCI and give its measured protein stability index.
0.678

Consider the sequence VVVWLFRIKSNV and give its measured protein stability index.
0.46

Consider the sequence VFGCHHLEVSVC and give its measured protein stability index.
0.248

Consider the sequence GRLRLGVLCGGV and give its measured protein stability index.
0.611

----------
# System: Saccharomyces cerevisiae
# Assay explanation: protein stability index of tFT-peptide fusion (C-terminal peptide) (PSI (0-1 scale)); higher = more stable (slower turnover)
# Run conditions: genetic background: wild type; temperature: 30 C
Cut-off 0.3 on protein stability index, inclusive. At or above means rule met; below means rule not met.

Could you verify whether the entry RGWWWFVVVLCR shows protein stability index of no less than 0.3?
rule not met

Could you verify whether the entry FWVNFLFVLFIL shows protein stability index of no less than 0.3?
rule not met

Could you verify whether the entry WHFPCPPLPCPV shows protein stability index of no less than 0.3?
rule met

Could you verify whether the entry SRVSEFVIPLGR shows protein stability index of no less than 0.3?
rule met

Could you verify whether the entry VFFPCRLLPLLF shows protein stability index of no less than 0.3?
rule not met

----------
# System: Saccharomyces cerevisiae
# Assay explanation: protein stability index of tFT-peptide fusion (C-terminal peptide) (PSI (0-1 scale)); higher = more stable (slower turnover)
# Run conditions: genetic background: wild type; temperature: 37 C
Note: every record was labeled by where its protein stability index sits among bucket 1 (below 0.3), bucket 2 (0.3 to below 0.5), bucket 3 (0.5 or more)

# Residue codes, Assayed target, Category label
records = [
    ("WILLVLACFSSG", "Saccharomyces cerevisiae", "bucket 2"),
    ("FLLELRFTCSYS", "Saccharomyces cerevisiae", "bucket 2"),
    ("RGPSQVIVAFFV", "Saccharomyces cerevisiae", "bucket 3"),
    ("VCIPLLVIRFLV", "Saccharomyces cerevisiae", "bucket 1"),
    ("FCMLCVVFLGSL", "Saccharomyces cerevisiae", "bucket 3"),
]

Which protein stability index category applies to FFCSILLGIILL here?
bucket 2

Which protein stability index category applies to RISYKTKINELI here?
bucket 3

Which protein stability index category applies to RLVVSRNFYRLC here?
bucket 2

Which protein stability index category applies to ERWSPWIVVFTN here?
bucket 1

Which protein stability index category applies to NMRYRATIEACA here?
bucket 2

Which protein stability index category applies to GYVVYRRYILIR here?
bucket 1

Which protein stability index category applies to IPLGLTLVQCLY here?
bucket 3

Which protein stability index category applies to FLAFSYIRLLFF here?
bucket 1

Which protein stability index category applies to YLCCFSVAFFLG here?
bucket 2

Which protein stability index category applies to CSAVYNLHLLYS here?
bucket 3
